Every entry's value here was drawn from patent US20230357179A1.

- subject of test: A-Raf kinase (Homo sapiens, UniProt P10398, Y301D/Y302D)
- Construct: purchased Sigma
- Sequence (P10398 with tags, fused parts or gaps Y301D/Y302D): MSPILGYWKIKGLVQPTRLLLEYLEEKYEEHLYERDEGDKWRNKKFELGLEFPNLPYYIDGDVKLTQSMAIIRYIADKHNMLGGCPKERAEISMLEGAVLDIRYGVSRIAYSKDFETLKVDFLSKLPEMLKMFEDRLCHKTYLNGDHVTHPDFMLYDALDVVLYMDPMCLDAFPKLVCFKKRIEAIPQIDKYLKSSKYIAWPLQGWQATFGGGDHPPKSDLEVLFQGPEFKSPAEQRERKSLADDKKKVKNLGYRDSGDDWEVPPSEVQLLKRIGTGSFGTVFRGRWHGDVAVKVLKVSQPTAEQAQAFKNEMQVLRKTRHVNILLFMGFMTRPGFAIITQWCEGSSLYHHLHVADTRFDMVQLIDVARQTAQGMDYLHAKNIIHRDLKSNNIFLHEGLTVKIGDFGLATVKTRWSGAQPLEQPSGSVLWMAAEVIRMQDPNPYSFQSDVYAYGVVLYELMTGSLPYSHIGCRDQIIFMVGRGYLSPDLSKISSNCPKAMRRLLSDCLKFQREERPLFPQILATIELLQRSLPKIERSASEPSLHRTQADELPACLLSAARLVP
- protocol: Biochemical assay for A-Raf.1 (coupled pyruvate kinase/lactate dehydrogenase)
- protocol conditions: read-out: ARAF.1 IC50
Below is a list of entries, each paired with its recorded IC50 value.

IC50 reading for Cc1ncc(NC(=O)NCCC2(C)CC2)cc1-c1ccnc(-c2ccnc(NC(=O)C3CC3)c2)c1 [Example 118] : > 1 µM

IC50 reading for COC(=O)Nc1cc(-c2cc(-c3cc(NC(=O)NC4CC(C)(C)C4)cnc3C)cc(OCCO)n2)ccn1 [Example 156] : > 1 µM

IC50 reading for CC(=O)Nc1cc(-c2cc(-c3cc(NC(=O)NC4CCC(F)(F)CC4)c(F)cc3C)cc(OCCO)n2)ccn1 [Example 63] : 0.5 to 1 µM

IC50 reading for Cc1ncc(NC(=O)NC2CC(C)(C)C2)cc1-c1cc(OCCO)nc(-c2ccnc(NC(=O)C3CC3)c2)c1 [Example 126] : 0.5 to 1 µM

IC50 reading for CNC(=O)c1cc(-c2cnnc(-c3cc(NC(=O)N4CC[C@@H](OC)C4)cnc3C)c2)ccn1 [Example 204] : > 1 µM
